# Target System: JAK2 (Homo sapiens)
# Construct: 0.05–0.42 ng JAK2, 2 μM peptide substrate (Tyr06)
# Sequence (O60674 whole entry): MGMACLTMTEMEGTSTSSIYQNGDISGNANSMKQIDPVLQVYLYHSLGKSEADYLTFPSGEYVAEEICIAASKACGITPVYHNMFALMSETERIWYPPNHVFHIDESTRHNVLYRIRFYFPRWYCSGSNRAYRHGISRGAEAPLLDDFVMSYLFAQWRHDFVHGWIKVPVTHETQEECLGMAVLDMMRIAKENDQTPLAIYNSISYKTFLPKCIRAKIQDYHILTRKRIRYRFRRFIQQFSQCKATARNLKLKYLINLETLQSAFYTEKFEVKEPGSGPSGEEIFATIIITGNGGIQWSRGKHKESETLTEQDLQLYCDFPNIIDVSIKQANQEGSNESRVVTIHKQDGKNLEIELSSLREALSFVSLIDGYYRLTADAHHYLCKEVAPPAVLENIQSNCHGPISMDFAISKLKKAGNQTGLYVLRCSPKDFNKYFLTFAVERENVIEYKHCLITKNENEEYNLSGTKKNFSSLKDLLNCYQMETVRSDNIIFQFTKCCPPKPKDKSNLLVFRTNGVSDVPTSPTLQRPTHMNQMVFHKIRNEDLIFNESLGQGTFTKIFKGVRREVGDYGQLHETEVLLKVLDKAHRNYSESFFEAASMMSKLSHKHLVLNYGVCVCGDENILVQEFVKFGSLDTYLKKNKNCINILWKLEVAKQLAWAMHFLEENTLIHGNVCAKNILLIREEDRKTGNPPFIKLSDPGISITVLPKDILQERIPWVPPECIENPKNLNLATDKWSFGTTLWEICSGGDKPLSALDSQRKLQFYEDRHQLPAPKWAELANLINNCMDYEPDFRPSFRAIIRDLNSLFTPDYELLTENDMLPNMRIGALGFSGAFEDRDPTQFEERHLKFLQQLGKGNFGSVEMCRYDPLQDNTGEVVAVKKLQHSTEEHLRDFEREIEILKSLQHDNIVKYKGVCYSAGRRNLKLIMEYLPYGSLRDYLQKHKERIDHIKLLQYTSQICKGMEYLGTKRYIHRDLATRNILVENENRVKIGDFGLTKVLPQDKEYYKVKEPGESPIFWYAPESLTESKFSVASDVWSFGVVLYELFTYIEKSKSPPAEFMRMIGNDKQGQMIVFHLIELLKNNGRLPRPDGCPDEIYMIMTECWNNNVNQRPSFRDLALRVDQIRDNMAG
# Protocol Summary: JAK2 enzyme assay (Z'-LYTE kinase assay kit)
# Format: biochemical
# Experimental Parameters: JAK2 enzyme; mean ± SD of 3 replicates; read-out: IC50/μM mean ± SD, enzyme inhibitory activity
Would you kindly list IC50 for each of these molecules?
One number for each entry, in µM.

{"Chemical String": "Cc1cnc2nc1Nc1cccc(c1)COCC=CCOCc1cc(ccc1OCCN1CCCC1)N2", "IC50 [µM]": 0.006}

Batch lookup, IC50 per entry.
1. Cc1cnc2nc1Nc1cccc(c1)C(=O)N(C)Cc1cc(ccc1OCCN1CCCC1)N2
2. Cc1cnc2nc1Nc1cccc(c1)COCc1cc(ccc1OCCN1CCCC1)N2

Result:
[0.364, 0.07]
